TARGET_ENTITY: hGOAT (Homo sapiens, UniProt Q96T53)
Construct: 3xHA (C); FLAG (C); His6 (C); made in house; host or cells: Sf9 insect cells (baculovirus), crude membrane fraction
Sequence (Q96T53 whole entry): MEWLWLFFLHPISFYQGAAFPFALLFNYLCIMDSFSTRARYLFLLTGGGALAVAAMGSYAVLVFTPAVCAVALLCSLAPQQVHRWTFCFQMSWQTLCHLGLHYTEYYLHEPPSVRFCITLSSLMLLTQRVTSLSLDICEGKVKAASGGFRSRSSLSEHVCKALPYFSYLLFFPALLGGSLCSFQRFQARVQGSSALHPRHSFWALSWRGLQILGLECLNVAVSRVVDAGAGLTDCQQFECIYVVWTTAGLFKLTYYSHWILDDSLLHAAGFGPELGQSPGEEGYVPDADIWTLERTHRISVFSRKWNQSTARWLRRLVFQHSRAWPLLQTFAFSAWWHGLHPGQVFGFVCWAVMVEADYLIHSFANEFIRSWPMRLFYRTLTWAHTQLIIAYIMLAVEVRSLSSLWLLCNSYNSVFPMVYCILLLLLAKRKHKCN
EXPERIMENT_DESCRIPTION: hGOAT inhibition assay (octanoylation of GSSFLCAcDan by Sf9 membrane fraction expressing hGOAT, HPLC fluorescence)
Type: biochemical
ASSAY_SETUP: average of three independent trials ± one standard deviation; read-out: IC50 against hGOAT
Square brackets hold non-standard residues; d marks the D form. Peptide text beside a SMILES is read from it. * marks the point of attachment. X1 = CN1/C(=C/C=C/C=C/C2=[N+](CCCCCC(=O)*)c3ccc(S(=O)(=O)[O-])cc3C2(C)C)C(C)(C)c2cc(S(=O)(=O)O)ccc21; 1Nal = N[C@@H](Cc1cccc2ccccc12)C(=O)O; Octanoyl = CCCCCCCC(=O)*; Dap = NC[C@H](N)C(=O)O
Field: pIC50. Provide a value for each of the molecules that follow.
Answer as the number alone; pIC50 is minus log10 of concentration in mol/L.

// Input: CCCCCCCC(=O)NC[C@H](NC(=O)[C@H](CO)NC(=O)CN)C(=O)N[C@@H](Cc1ccccc1)C(=O)N[C@@H](CC(C)C)C(=O)N[C@@H](CO)C(=O)N1CCC[C@H]1C(=O)N[C@H](C(N)=O)[C@@H](C)O [ligand 11, H-GS-(C8-Dap)-FLSPT-NH2] (H-GS[Dap](Octanoyl)FLSPT-NH2) . Output its pIC50 only.
7.57

State its pIC50 for this molecule: CC(C)C[C@H](NC(=O)[C@H](Cc1cccc2ccccc12)NC(=O)[C@H](CN)NC(=O)[C@H](CO)NC(=O)CN)C(=O)N[C@@H](CO)C(=O)N1CCC[C@H]1C(=O)N[C@H](C(=O)N[C@@H](CCCCNC(=O)CCCCC[N+]1=C(/C=C/C=C/C=C2/N(C)c3ccc(S(=O)(=O)O)cc3C2(C)C)C(C)(C)c2cc(S(=O)(=O)[O-])ccc21)C(N)=O)[C@@H](C)O [ligand 15, H-GS-Dap-Nal-1-LSPTK(SulfoCy5)-NH2] (H-GS[Dap][1Nal]LSPTK(X1)-NH2)
7.77

Identify measured pIC50 associated with CCCCCCCC(=O)NC[C@H](NC(=O)[C@H](CO)NC(=O)CN)C(=O)N[C@@H](Cc1ccccc1)C(=O)N[C@@H](CC(C)C)C(=O)N[C@@H](CO)C(=O)N1CCC[C@H]1C(=O)N[C@@H](CCC(=O)O)C(N)=O
6.24

Answer with reported pIC50 of CCCCCCCC(=O)NC[C@H](NC(=O)[C@H](CO)NC(=O)CN)C(=O)N[C@@H](Cc1ccccc1)C(=O)N[C@@H](CC(C)C)C(=O)N[C@@H](CO)C(=O)N1CCC[C@H]1C(=O)N[C@@H](Cc1ccc(O)cc1)C(N)=O [ligand 2, H-GS-(C8-Dap)-FLSPY-NH2] (H-GS[Dap](Octanoyl)FLSPY-NH2)
7.19

Using known records, supply pIC50 for CCCCCCCC(=O)NC[C@H](NC(=O)[C@H](CO)NC(=O)CN)C(=O)N[C@@H](Cc1ccccc1)C(=O)N[C@@H](CC(C)C)C(=O)N[C@@H](CO)C(=O)N1CCC[C@H]1C(=O)N[C@@H](CC(N)=O)C(N)=O [ligand 10, H-GS-(C8-Dap)-FLSPN-NH2] (H-GS[Dap](Octanoyl)FLSPN-NH2)
7.23
